target: BKV serotype II chimeric infectious virus (VP1 of isolate SB) (BK virus serotype II); test: cell-based or functional assay
observed-property: neutralization EC50 (µg/mL)
Please give a number only; it is taken to be in µg/mL.

query: For NEG447 (antibody, human IgG1, lambda, V domains shown) VH: QVQLQESGPGLVKPSETLSLTCTVSGGSISRDYWSWVRQPPGAGLEWIGNIYYSGSTNYNPSLKSRVTISVATNKKQFSLKLTSVTAADTAVYYCARVPGCSSTSCIDGWFDPWGQGILVTVSS VL: QSVLTQPPSLSAAPGQKVTISCSGSSSNIGNTYVSWYQQLPGTAPKLLIYDNNKRPSGIPDRFSGSKSGTSATLGITGLQTGDEAVYYCGTWDSSLSAWVFGGGTRLTVLG , what is its reported neutralization EC50?
result: 0.024

query: What value of neutralization EC50 has been recorded for this entry: P8D11B (antibody, V domains shown) VH: QVQLVESGGTLVQPGGSLRLSCAASGFTFKNYWMTWVRQAPGKGLEWVANIKKDGSEKYYVDSVRGRFTISRDNAKNSLFLQMNSLRPEDTAVYFCATVRSGRYFALDDWGQGTLVTVSS VL: QSVLTQPPSVSVAPGKTARITCGGDNIGSRPVHWYQQKPGQAPILVVYDDSNRPSGIPERFSGSNSGNTATLTISRVEAGDEADYYCQVWSSSTDHPFGGGTKVTVLG
result: 0.088

query: Any idea what neutralization EC50 was measured for P7G11A (antibody, human IgG1, lambda, V domains shown) VH: QVQLQESGPGLVKPSQTLSLTCTVSGGSISSGGYSWSWIRQPPGKGLEYIGYIYYRGTTYYNPSLKSRVTISVDTSNNQISLKLSSVTAADTAVYYCARALTHLVGVGWFDPWGQGTMVTVSS VL: QSVLTQPPSVSAAPGQKVTISCSGGSSNLGSNYVSWYQQLPGTAPKLLIYDNNKRPSGIPDRFSGSKSGTSATLGITGLQTGDEADYYCGTWDGSLSAWVFGGGTKVTVLG ?
result: 0.074

The origin of these recorded values is patent US20170088605A1.
